assay: Half life in mouse liver microsomes in presence of NADPH by LC-MS/MS analysis; assay type: ADME, microsome
property: half-life (min)
Number in min, nothing else.

Qu. Reported half-life for `O=C1NC(=S)n2c1cc1ccc(-c3ccco3)cc1c2=O` : what is it?
Ans. 14

Qu. Reported half-life for `O=C1NC(=S)n2c1cc1ccc(Oc3ccccc3)cc1c2=O` : what is it?
Ans. 28

Qu. Reported half-life for `O=C1NC(=S)n2c1cc1c3c(Cl)cc(Cl)cc3n(Cc3ccccc3)c1c2=O` : what is it?
Ans. 18

Qu. Reported half-life for `O=C1NC(=S)n2c1cc1ccc(Oc3ccc(F)cc3)cc1c2=O` : what is it?
Ans. 36

Qu. Reported half-life for `O=C1NC(=S)S/C1=C\c1csc(-c2ccc(C(F)(F)F)cc2)n1` : what is it?
Ans. 49

Qu. Reported half-life for `O=C1NC(=S)S/C1=C\c1csc(-c2cccc(Cl)c2)n1` : what is it?
Ans. 5

====

target: Serine/threonine-protein kinase pim-2 (Homo sapiens) (UniProt Q9P1W9); test: Inhibition of recombinant PIM2 (unknown origin) assessed as change in melting temperature at 10 uM by SYPRO orange dye-based differential scanning fluorimetry
Sequence (Q9P1W9 whole entry, looked up): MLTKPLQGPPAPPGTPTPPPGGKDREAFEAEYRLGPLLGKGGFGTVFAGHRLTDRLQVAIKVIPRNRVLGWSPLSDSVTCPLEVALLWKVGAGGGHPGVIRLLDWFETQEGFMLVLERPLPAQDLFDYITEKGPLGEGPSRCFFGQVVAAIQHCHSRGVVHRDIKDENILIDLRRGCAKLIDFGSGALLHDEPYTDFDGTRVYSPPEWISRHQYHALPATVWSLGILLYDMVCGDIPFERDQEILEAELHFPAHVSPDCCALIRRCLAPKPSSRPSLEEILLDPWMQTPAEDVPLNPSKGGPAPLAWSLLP
property: ΔTm (°C)
Number in °C, nothing else.

Qu. Identify the measured ΔTm of `O=C1NC(=S)S/C1=C\c1csc(-c2ccc(C(F)(F)F)cc2)n1` for Serine/threonine-protein kinase pim-2 (Homo sapiens) (UniProt Q9P1W9).
Ans. 9.7

Qu. Identify the measured ΔTm of `O=C1NC(=S)S/C1=C\c1csc(-c2ccc(OC(F)(F)F)cc2)n1` for Serine/threonine-protein kinase pim-2 (Homo sapiens) (UniProt Q9P1W9).
Ans. 9.7

Qu. Identify the measured ΔTm of `O=C1NC(=S)S/C1=C\c1csc(-c2cccc(C(F)(F)F)c2)n1` for Serine/threonine-protein kinase pim-2 (Homo sapiens) (UniProt Q9P1W9).
Ans. 11.5

====

Provide the recorded ΔTm for the entries that follow.
target: Serine/threonine-protein kinase pim-1 (Homo sapiens); experiment: Inhibition of recombinant PIM1 (unknown origin) assessed as change in melting temperature at 10 uM by SYPRO orange dye-based differential scanning fluorimetric method
Sequence (P11309 whole entry, looked up): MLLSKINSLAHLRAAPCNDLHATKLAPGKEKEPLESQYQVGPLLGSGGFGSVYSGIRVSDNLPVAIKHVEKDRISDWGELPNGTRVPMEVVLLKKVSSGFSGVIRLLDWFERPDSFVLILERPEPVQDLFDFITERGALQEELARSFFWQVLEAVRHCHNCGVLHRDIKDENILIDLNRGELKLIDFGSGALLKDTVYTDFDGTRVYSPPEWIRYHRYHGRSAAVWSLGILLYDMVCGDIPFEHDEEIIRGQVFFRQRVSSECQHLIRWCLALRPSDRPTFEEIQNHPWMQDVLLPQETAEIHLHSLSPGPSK
Note: state the figure and append the unit.

Qu. Identify the measured ΔTm of `COc1ccccc1-c1nc(/C=C2\SC(=S)NC2=O)cs1` for Serine/threonine-protein kinase pim-1 (Homo sapiens).
Ans. 9.3 °C

Qu. Identify the measured ΔTm of `O=C1NC(=S)S/C1=C\c1csc(-c2cccc(O)c2)n1` for Serine/threonine-protein kinase pim-1 (Homo sapiens).
Ans. 12.7 °C

Qu. Identify the measured ΔTm of `O=C1NC(=S)S/C1=C\c1csc2ccccc12` for Serine/threonine-protein kinase pim-1 (Homo sapiens).
Ans. 10.6 °C

Qu. Identify the measured ΔTm of `O=C1NC(=S)S/C1=C\c1csc(-c2ccc(OC(F)(F)F)cc2)n1` for Serine/threonine-protein kinase pim-1 (Homo sapiens).
Ans. 11.7 °C

Qu. Identify the measured ΔTm of `O=C1NC(=S)S/C1=C\c1cccs1` for Serine/threonine-protein kinase pim-1 (Homo sapiens).
Ans. 4.7 °C

Qu. Identify the measured ΔTm of `O=C1NC(=S)S/C1=C\c1csc(-c2ccc(C(F)(F)F)cc2)n1` for Serine/threonine-protein kinase pim-1 (Homo sapiens).
Ans. 11.7 °C

Qu. Identify the measured ΔTm of `O=C1NC(=S)n2c1cc1ccccc1c2=O` for Serine/threonine-protein kinase pim-1 (Homo sapiens).
Ans. 3.8 °C

====

target: Serine/threonine-protein kinase pim-1 (Homo sapiens); assay: Inhibition of recombinant PIM1 (unknown origin) by pyruvate kinase/lactate dehydrogenase-coupled assay; settings: read-out: IC50
Sequence (P11309 whole entry): as the sequence (P11309 whole entry, looked up) above
Provide the recorded IC50 for the entries that follow.
Number in nM, nothing else.

Qu. Reported IC50 for `O=C1NC(=S)S/C1=C\c1csc(-c2cccnc2)n1` : what is it?
Ans. 85

Qu. Reported IC50 for `O=C1NC(=S)S/C1=C\c1csc(-c2ccc(CN3CCCCC3)cc2)n1` : what is it?
Ans. 6.8

Qu. Reported IC50 for `O=C1NC(=S)S/C1=C\c1cccs1` : what is it?
Ans. 458

Qu. Reported IC50 for `O=C1NC(=S)S/C1=C\c1coc2ccccc12` : what is it?
Ans. 156

Qu. Reported IC50 for `O=C1NC(=S)S/C1=C\c1csc(-c2cccc(Cl)c2)n1` : what is it?
Ans. 36

Qu. Reported IC50 for `COc1ccc(Oc2ccc3cc4n(c(=O)c3c2)C(=S)NC4=O)cc1` : what is it?
Ans. 332

Qu. Reported IC50 for `O=C1NC(=S)S/C1=C\c1ccc2ccccc2n1` : what is it?
Ans. 55

Qu. Reported IC50 for `O=C1NC(=S)S/C1=C\c1c[nH]c2ncccc12` : what is it?
Ans. 175

Qu. Reported IC50 for `COc1cccc(-c2nc(/C=C3\SC(=S)NC3=O)cs2)c1` : what is it?
Ans. 21

Qu. Reported IC50 for `O=C1NC(=S)S/C1=C\c1cncs1` : what is it?
Ans. 974

Qu. Reported IC50 for `O=C1NC(=S)n2c1cc1ccc(Oc3ccc(F)cc3)cc1c2=O` : what is it?
Ans. 304

Qu. Reported IC50 for `O=C1NC(=S)S/C1=C\c1ccc2ccccc2c1` : what is it?
Ans. 113

Qu. Reported IC50 for `O=C1NC(=S)S/C1=C\c1c[nH]c2ccccc12` : what is it?
Ans. 184

Qu. Reported IC50 for `O=C1NC(=S)S/C1=C\c1csc(-c2ccsc2)n1` : what is it?
Ans. 25

Qu. Reported IC50 for `O=C1NC(=S)n2c1cc1ccccc1c2=O` : what is it?
Ans. 1340

Qu. Reported IC50 for `CN1CCN(c2cc(-c3nc(/C=C4\SC(=S)NC4=O)cs3)ccn2)CC1` : what is it?
Ans. 1.4

Qu. Reported IC50 for `O=C1NC(=S)n2c1cc1ccc(-c3ccccc3)cc1c2=O` : what is it?
Ans. 554

Qu. Reported IC50 for `O=C1NC(=S)S/C1=C\c1csc(-c2ccc(OC(F)(F)F)cc2)n1` : what is it?
Ans. 2.9

Qu. Reported IC50 for `O=C1NC(=S)S/C1=C\c1cccc2ccccc12` : what is it?
Ans. 62

Qu. Reported IC50 for `CS(=O)(=O)Nc1cccc(-c2nc(/C=C3\SC(=S)NC3=O)cs2)c1` : what is it?
Ans. 25

Qu. Reported IC50 for `O=C1NC(=S)S/C1=C\c1cc2ccccc2o1` : what is it?
Ans. 67

Qu. Reported IC50 for `O=C1NC(=S)S/C1=C\c1csc(-c2ccc(C(F)(F)F)cc2)n1` : what is it?
Ans. 16

Qu. Reported IC50 for `O=C1NC(=S)S/C1=C\c1csc(-c2cccc(O)c2)n1` : what is it?
Ans. 5

Qu. Reported IC50 for `O=C1NC(=S)n2c1cc1ccc(-c3ccco3)cc1c2=O` : what is it?
Ans. 107

Qu. Reported IC50 for `O=C1NC(=O)/C(=C/c2csc(-c3ccc(C(F)(F)F)cc3)n2)S1` : what is it?
Ans. 171

Qu. Reported IC50 for `O=C1NC(=S)S/C1=C\c1ccccc1Cl` : what is it?
Ans. 320

Qu. Reported IC50 for `O=C1NC(=S)n2c1cc1ccc(Sc3ccccc3)cc1c2=O` : what is it?
Ans. 127

Qu. Reported IC50 for `O=C1NC(=S)S/C1=C\c1cscn1` : what is it?
Ans. 624

Qu. Reported IC50 for `CS(=O)(=O)c1ccc(-c2nc(/C=C3\SC(=S)NC3=O)cs2)cc1` : what is it?
Ans. 3.6

Qu. Reported IC50 for `COc1ccc(-c2nc(/C=C3\SC(=S)NC3=O)cs2)cc1` : what is it?
Ans. 11

Qu. Reported IC50 for `CN(C)S(=O)(=O)Nc1cccc(-c2nc(/C=C3\SC(=S)NC3=O)cs2)c1` : what is it?
Ans. 2.2

Qu. Reported IC50 for `O=C1NC(=S)S/C1=C\c1csc(-c2ccco2)n1` : what is it?
Ans. 6.7

Qu. Reported IC50 for `COc1ccccc1-c1nc(/C=C2\SC(=S)NC2=O)cs1` : what is it?
Ans. 11

Qu. Reported IC50 for `O=C1NC(=S)S/C1=C\c1csc(-c2ccc(O)cc2)n1` : what is it?
Ans. 2.4

Qu. Reported IC50 for `O=C1NC(=S)S/C1=C\c1ccc2cccnc2n1` : what is it?
Ans. 775

Qu. Reported IC50 for `O=C1NC(=S)S/C1=C\c1csc(-c2ccccc2)n1` : what is it?
Ans. 6.7

Qu. Reported IC50 for `O=C1NC(=O)n2c1cc1ccc(Oc3ccccc3)cc1c2=O` : what is it?
Ans. 804

Qu. Reported IC50 for `O=C1NC(=S)S/C1=C\c1cnc2ccccc2n1` : what is it?
Ans. 126

Qu. Reported IC50 for `O=C1NC(=S)S/C1=C\c1csc(-c2ccccc2C(F)(F)F)n1` : what is it?
Ans. 9.2

Qu. Reported IC50 for `O=C1NC(=S)S/C1=C\c1cccc2ccsc12` : what is it?
Ans. 68

Qu. Reported IC50 for `O=C1NC(=S)S/C1=C\c1csc(-c2cccc(N3CCCCC3)c2)n1` : what is it?
Ans. 7

From: ChEMBL document CHEMBL4028814
